Value source: patent US7056679

Target: DGI-2 polypeptide (UniProt Q15004)
Sequence (Q15004 whole entry): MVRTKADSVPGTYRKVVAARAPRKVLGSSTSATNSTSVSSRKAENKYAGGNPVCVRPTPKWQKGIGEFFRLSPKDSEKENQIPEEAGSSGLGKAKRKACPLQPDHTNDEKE
Assay: phage ELISA, 405 nm; DGI-2 coated
Readout name: DGI-2 (OD)

The reported value for GEVDCVYALTHRFLSPQVQYHHRPVAAAGAPVPYPDPLEPRP (peptide, not shown: large carriers) [DGI-2-20C-3-A12] in terms of DGI-2 (OD) is 0.9 OD

The reported value for DYKGRTMTSPIMSALPVYDRLHGAIGSRGQNMDAAAGAPVPYPDPLEPRP (peptide, not shown: large carriers) [DGI-2-20C-3-B3] in terms of DGI-2 (OD) is 0.8 OD

The reported value for DGI-2-40F-3-C10 (peptide, not shown: large carriers) peptide: WRARSSGYLFALTPNFGVPHPSSALRRMHGLMARDLRPVAAAGAPVPYPDPLEPRP in terms of DGI-2 (OD) is 1.1 OD

The reported value for LGNASSLIPFLRSVQESGVRAAAGAPVPYPDPLEPRP (peptide, not shown: large carriers) [DGI-2-20F-3-C5] in terms of DGI-2 (OD) is 1 OD

The reported value for DGI-2-40F-4-E1130 (peptide, not shown: large carriers) peptide: VCRLCRLCRFSMRCGGLSLVLGSAAAFFCEVFVGFCVAAAGAPVPYPDPLEPRP in terms of DGI-2 (OD) is 2.9 OD

Now examine the next entry.
The reported value for WFTHVVEKFAAAGAPVPYPDPLEPRP (peptide, not shown: large carriers) [DGI-2-40F-3-A4] in terms of DGI-2 (OD) is 1.1 OD
